test system: MS2 coat protein; experiment: apparent KD of MS2 coat protein, switch OFF state (with FMN for OFF switches, without FMN for ON switches); designed switch direction (-1 OFF switch, 1 ON switch): -1; higher = weaker reporter binding; details: FMN input: 0 or 200 uM; Eterna round: R93 (includes R88 designs)
METRIC_NAME: apparent KD of MS2 coat protein (nM)
Numbers only, in nM.

The examples below pair each entry with its known result.
> print(dat)
                        biopolymer.sequence                      metric.name  reported.value
1  AAAACACAUGAGGAUCACCCAUGUGAGGAUAUGCUAUGGAAAUAAAAAAUAAAACAUAGCAGAAGGCGCAGGAA [Mat - Exclusion 1 - Eli mod - D47]  apparent KD of MS2 coat protein            29.1
2  AAAAAUGGAGGAUAUACAUGAGGAUCACCCAUGUGUGACUAUACUAUGUGCUCUUCAGGUAGAAGGCCAAAAAA [Gilly Gone Silly 19 - Jieux - Exclusion 3]  apparent KD of MS2 coat protein             249
3  AAUAACAGAGGAUAUGCAAAAAUAAGCGGAAACGCAAGAAAACAUGAGGAUCACCCAUGUAGAAGGCUGGAUAA [Tetraloop hairpin BlockHead Variations]  apparent KD of MS2 coat protein            16.7
4  AAUGAUUUAGGAUAUACAUGAGGAUCACCCAUGUUCAAAUCGUGGGUCAGGUGAGAAGGUAGAAGGAAAUCACU [Soberior]  apparent KD of MS2 coat protein             185

# batch: return apparent KD of MS2 coat protein for each of the 5 sequences below
1. AAAAAACAUGAGGAUCACCCAUGUGAGGAUAUCGUAAACAAAAAAAACAAAAACAAAUCGAGAAGGCACAAAAA [Amethyst 34]
2. AACUGACAUGAGGAUCACCCAUGUCAGGAUAUGACUUGAUAGAAAAUAAAAUAUCAUGUCAGAAGGGACAUGAA [Design 61: Sub-opt KB]
3. AAAAAACAUGAGGAUCACCCAUGUGAGGAUAUGCAAAAGAAAAGAAAAGAAAGAAGAAGCAGAAGGCACAAGAA [Djedefra]
4. AAAAAAGGAGGAUAUACGUACAUGUCAAAAGACGUGAAGGGACAUGAGGAUCACCCAUGUAGAAGGUCUAAAAA [JL Part Open 36]
5. AAGACUACAGGAUAUACAUGAGGAUCACCCAUGUAACUGACAAGUAGAGGACGGAGAAGUAGAAGGGUAGUCAA [Ruby 35]

1: 35.1; 2: 12.4; 3: 36.8; 4: 17.9; 5: 26.7

====

test system: MS2 coat protein; test: apparent KD of MS2 coat protein; higher = weaker reporter binding; details: Eterna round: R107; input ligand: theophylline 2 mM
Would you mind classing the entries by apparent KD of MS2 coat protein? Ranges: bottom bin: < 40 nM; middle bin: ≥ 40 nM and < 100 nM; top bin: ≥ 100 nM

Worked examples follow.
BIOPOLYMER_SEQUENCE	CLASSIFICATION
AUUCAUGGAAACAUGACAUAGGGAUCACUCCGAGGACCGGUACGGCCGCCACUCGCGAGGAGGCACAUGAGGAUCACCCAUGUUA [SS Tryp A #4]	middle bin
AAGCUUCGCAUAGGAAAACUAUGUGAAGCUCGAGGACCGGUACGGCCGCCACUCGUCCUCAACAUGAGGAUCACCCAUGUAAUAA [Mat - Exclusion - Trytophan A - D2]	bottom bin
UAUGCACAUGAGGAUCACCCAUGUAUGGAAGGAGCGGUGAAUGAACCAGGUAGGUCGCCAUGGUGAGGAUCAUCUAUGUAAUCGU [Exclusion - Arginine A (Freestyle 7)]	top bin
UGUAUGUGAUUUGAUACCAGACCAGCGGGUGUUGCAUGAGGAUCACCCAUGUAGGUUUGGGUCCCUUGGCAGCAAAUCGCAUACU [SS Theo B #24 Ms18]	top bin
UGGUGUAGGGUAAAUAGGAUUAGUACAGAAGGAGCGCGAAUAAACGCAGGUAGGUCGCUGGAAUACAUGAGGAUCACCCAUGUUC [Same State Arginine A GF 25]	bottom bin

# input for lookup
Field: class (apparent KD of MS2 coat protein) — entry: AGCCACUCGAGUGAUCCUCACGAGUGGCUACGAGGACCGGUACGGCCGCCACUCGAAUCAACAUGAGGAUCACCCAUGUAAUAAU [Brourdmod02]
top bin

====

Kindly state apparent KD of MS2 coat protein for each of the entries shown.
tested on: MS2 coat protein; experiment: apparent KD of MS2 coat protein; designed switch direction (-1 OFF switch, 1 ON switch): -1; higher = weaker reporter binding; conditions: input ligand: none
One number for each entry, in nM.

# batch: return apparent KD of MS2 coat protein for each of the 4 sequences below
1. ACCUGGUGAGGAUAUGUUGGGAAUGAUCCUUUCGGAUUGACACAGAAGGCACAUGAGGAUCACCCAUGUGGGUG [Eternabot (L1) Solution 70] (Eterna round: R97, puzzle: Exclusion 4)
2. CCAAGCUUAUUCAUUAACCACAUGAGGAUCACCCAUGUAUAGGCAAUUAUGACUGGGCAAUGUGGUGCUCGUCUUAU [Sensor-V1 #28] (Eterna round: R97, puzzle: Sensor, turn-off variant 1)
3. GGCAAAGUAGGAUAUACAUGAGGAUCACCCAUGUUUCCAGAUGGCGUAGGUCUUCUUUGUAGAAGGGCUAUGCC [Ananinge] (Eterna round: R97, puzzle: Exclusion 3)
4. AACCAGCGAGGAUAUGCUUGCGCGUGUUCUAGUUGUAAUCGACUUGAGGAUCACCCAAGUAGAAGGCGCUGCCG [EX2 #50] (Eterna round: R97, puzzle: Exclusion 2)

1. 591
2. 41.3
3. 15.2
4. 119

====

system: MS2 coat protein; experiment: apparent KD of MS2 coat protein; designed switch direction (-1 OFF switch, 1 ON switch): 1; higher = weaker reporter binding; conditions: Eterna round: R95; input ligand: microRNA oligo, concentration not stated
METRIC_NAME: apparent KD of MS2 coat protein (nM)
Answers are plain numbers, in nM.

The examples below pair each entry with its known result.
BIOPOLYMER_SEQUENCE	SYSTEM_NAME	apparent KD of MS2 coat protein (nM)
UAGAGAGGAAGCGAGGAUAUCGUGUGAGGAACAUGAGGAUCACCCAUGUGUGAUGUUGAGAGAGACGAGAAGGCGCAGGAGAUUA [JR_SS2_Sub083] (puzzle: Same State 2)	MS2 coat protein	150
GAUAAACAUGAGGAUCACCCAUGUGUGAAUAUGGGAGGAUAUACGUGGACCGUAGUCCGCGUAGAAGGCCUAAUUG [Mat - Same State 1 - Mod of JL - D20] (puzzle: Same State 1)	MS2 coat protein	166

Next sequence, please.
Which measured apparent KD of MS2 coat protein value corresponds to AGAGAACAUGAGGAUCACCCAUGUGAGAGGGAUGUAGGAUAUGUAAGGAAGAAAGAAGGAACAGAAGGACAAAGAG [JR_SS!_Sub066] (puzzle: Same State 1) ?
78.5

====

test system: MS2 coat protein; assay: apparent KD of MS2 coat protein; designed switch direction (-1 OFF switch, 1 ON switch): 1; higher = weaker reporter binding; conditions: input ligand: microRNA oligo, concentration not stated
METRIC_NAME: apparent KD of MS2 coat protein (nM)
Give bare numbers, in nM.

The examples below pair each entry with its known result.
BIOPOLYMER_SEQUENCE	QUANTITY_UNIT	apparent KD of MS2 coat protein
AGUAGUUUAACAUGAGGAUCACCCAUGUAUCUAUCUGUAACCUAGGAUAUGGACGUUGUAUUUAACCAGAAGGAGGAUCGUUUA [JR_SSNG3_Sub046] (Eterna round: R96, puzzle: Same State NG 3)	nM	22.7
GUUACAUGAGGAUCACCCAUGUAUGUGUGGGAGUAAGUGUCUUAGGAUAUCUAGUAUUUUAUUUAAGAGAAGGAAGAUUGUUGU [JMF's solution 59] (Eterna round: R96, puzzle: Same State NG 3)	nM	93.7

Next sequence, please.
Which measured apparent KD of MS2 coat protein value corresponds to AGAUCAUGACGAGGAUAUGGUACAUGAGGAUCACCCAUGUAUGUAUCAUAACGCGAAUGACGAAACCAGAAGGCGUCGUGGUCA [JL SSNG2 1.11] (Eterna round: R96, puzzle: Same State NG 2) ?
14.6

====

tested on: MS2 coat protein; assay: apparent KD of MS2 coat protein; designed switch direction (-1 OFF switch, 1 ON switch): 1; higher = weaker reporter binding; conditions: input ligand: FMN 200 uM
Kindly state apparent KD of MS2 coat protein for each of the entries shown.

BIOPOLYMER_SEQUENCE	SYSTEM_NAME	REPORTED_VALUE
UUACUCAUGUAAGGAUAUGCAGCCGAAACGGCUGCAGAAGGUACUAUAAUACAUGAGGAUCACCCAUGUCAAAAUAAUUUUUAC [Mat - Same State NG 1 - JL mod - D71] (Eterna round: R96, puzzle: Same State NG 1)	MS2 coat protein	44.9 nM
AAACGCAGCAUAUCGCUGCGACAUGAGGAUCACCCAUGUACACAGGAUAUCGCGGCAUACCGCCACGAGAAGGGUGAUCAAGAC [Vebixeriso] (Eterna round: R96, puzzle: Same State NG 3)	MS2 coat protein	676 nM
GAGAGAGGGCGAGGAUAUUCGGUGAUAAUGAUGGAAGAAGGCGCAGACAUGAGGAUCACCCAUGUGGGAAUAAUCCAGAGAGAG [Parity 14 - Jieux - Same State NG 1] (Eterna round: R96, puzzle: Same State NG 1)	MS2 coat protein	206 nM

# batch: return apparent KD of MS2 coat protein for each of the 4 sequences below
1. ACAUGAGAGAUAGGAUAUUGUGUACCUACAUGUGACAUGAGGAUCACCCAUGUGGUAAGUAUGAGCAAGAAGGAUCAGAUAUGU [Equivalance 51 - Jieux - Same State NG 2] (Eterna round: R96, puzzle: Same State NG 2)
2. CAAGAAAACGCAGGAUAUACCCGAACAACCCGGGUAGAAGGGUGACACAUGAGGAUCACCCAUGUACAUGGCAUUAGCCAUGGA [Esusxebeis] (Eterna round: R96, puzzle: Same State NG 1)
3. AGCUAUUAAUCAGGAUAUAGGGACAUGAGGAUCACCCAUGUAUACAUGAUGAAAUGUGGUCACGUCUAGAAGGGAUUACUAACA [SameState NG2 #41] (Eterna round: R96, puzzle: Same State NG 2)
4. AAAAAACAUGAGGAUCACCCAUGUGAAAAUAUGGGAGGAUAUACAAACACGAAAGUGAAAGUAGAAGGCCUAAAAA [SS! MT 16] (Eterna round: R96, puzzle: Same State 1)

["23.2 nM", "1020 nM", "150 nM", "17.2 nM"]

# batch: return apparent KD of MS2 coat protein for each of the 2 sequences below
1. GGUGCCAAAUAAGCCUACAUGAGGAUCACCCAUGUAUGUAGGCAGGAUAUCGUAUGCAAAGCAUACGAGAAGGGCCUAGGCACC [Mat - Same State NG 3 - JL Mod - D63] (Eterna round: R96, puzzle: Same State NG 3)
2. AAAGGAUGAUGUUACAUGAGGAUCACCCAUGUUGUGAUAACUAAGGAUAUGUGUUAAACCAGUUAAUAGAAGGUAGGAUCAUAA [AK SSNG3-V2-5] (Eterna round: R96, puzzle: Same State NG 3)

18.8 nM
182 nM

Which measured apparent KD of MS2 coat protein value corresponds to GCGGAACGGGCCGACAUGAGGAUCACCCAUGUGCCCUCAUGUAAGGAUAUCGGGAAGAAGAAAACCGAGAAGGUACGGUGACGC [AK SSNG3-V2-30] (Eterna round: R96, puzzle: Same State NG 3) ?
945 nM
